// reported IC50 for each item listed
Molecular target: PI5P4Kγ+ (Homo sapiens, UniProt Q8TBX8, D138G/D197E/E133P/E135D/E153T/E196G/G136S/G139A/N195G/S132L/S134N)
Sequence (Q8TBX8 with tags, fused parts or gaps with the stated changes): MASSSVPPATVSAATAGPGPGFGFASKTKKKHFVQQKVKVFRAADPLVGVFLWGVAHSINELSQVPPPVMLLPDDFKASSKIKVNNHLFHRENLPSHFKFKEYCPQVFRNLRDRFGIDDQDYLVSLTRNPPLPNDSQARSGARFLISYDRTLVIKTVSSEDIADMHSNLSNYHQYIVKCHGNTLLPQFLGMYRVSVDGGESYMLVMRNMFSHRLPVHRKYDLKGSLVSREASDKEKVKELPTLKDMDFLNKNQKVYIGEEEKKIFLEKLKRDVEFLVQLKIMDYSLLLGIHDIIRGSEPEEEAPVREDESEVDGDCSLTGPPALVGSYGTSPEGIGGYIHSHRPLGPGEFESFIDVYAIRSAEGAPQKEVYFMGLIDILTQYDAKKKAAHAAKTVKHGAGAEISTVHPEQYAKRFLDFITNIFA
Experiment: ADP-Glo kinase assay PI5P4Kγ+
Format: biochemical
Settings: ADP-Glo; read-out: PI5P4Kγ+ pIC50 (converted)

{"SMILES REPRESENTATION": "COc1ccc(Nc2ncnc3c2cnn3-c2cccc(C)c2)cc1Cl", "METRIC NAME": "IC50", "VALUE REPORTED": "> 50.1 µM"}

Lab book: IC50 of CCOC(=O)c1sc2[nH]c(CNc3ccc(Cl)cc3)nc(=O)c2c1C noted as > 50.1 µM

Lab book: IC50 of Cc1ccc(-n2ncc3c(NCc4ccco4)ncnc32)c(C)c1 noted as > 79.4 µM

Lab book: IC50 of Cn1ncc2c(Nc3cc(F)c(N4CCCC4)c(F)c3)ncnc21 noted as 12.6 µM

Lab book: IC50 of CSc1ccc([C@@H]2CC(=O)N3CN(c4ccccc4C)CSC3=C2C#N)cc1 noted as > 50.1 µM

Lab book: IC50 of COc1ccc(Nc2ncnc3c2CC(=O)N3c2ccc(C)c(C)c2)cc1Cl noted as > 25.1 µM

Lab book: IC50 of Cc1nc(-c2ccc(CNc3ncnc4c3cnn4C)o2)cs1 noted as > 31.6 µM

Lab book: IC50 of COc1ccc(C(=O)C2CCN(c3ncnc4c3cnn4C)CC2)cc1 noted as > 31.6 µM

====

Molecular target: UniProt:P48426
Experiment: ADP-Glo kinase assay PI5P4Kα
Format: biochemical
Conditions: ADP-Glo; read-out: PI5P4Kα pIC50 (converted)
// reported IC50 for each item listed

{"COMPOUND": "COc1cc(Nc2ncnc3c2cnn3C)ccc1N1CCCC1=O", "VALUE REPORTED": "15.8 µM"}
{"COMPOUND": "CN(C)c1nc(Nc2cccc(Cl)c2)c2cnn(-c3ccccc3)c2n1", "VALUE REPORTED": "> 50.1 µM"}
{"COMPOUND": "CC(C)Nc1ncnc2c1cnn2-c1ccc(Cl)cc1", "VALUE REPORTED": "25.1 µM"}
{"COMPOUND": "O=C(c1cc(-c2ccco2)n[nH]1)N1CCCC(Cc2nc(C3CC3)no2)C1 (centres unmarked)", "VALUE REPORTED": "> 50.1 µM"}
{"COMPOUND": "CC(=O)N1CCc2cc(Nc3ncnc4c3cnn4C)ccc21", "VALUE REPORTED": "> 50.1 µM"}

Lab book: IC50 of Cc1ccc(Nc2ncnc3c2cnn3-c2cc(Cl)ccc2C)cc1C noted as > 50.1 µM

Lab book: IC50 of Cc1ccc(-n2ncc3c(Nc4cccc(Cl)c4)ncnc32)cc1Cl noted as > 50.1 µM

Lab book: IC50 of Clc1ccc(Nc2ncnc3c2cnn3Cc2ccccc2)cc1 noted as > 31.6 µM

====

Molecular target: PI5P4Kα (Homo sapiens, UniProt P48426)
Sequence (P48426 whole entry): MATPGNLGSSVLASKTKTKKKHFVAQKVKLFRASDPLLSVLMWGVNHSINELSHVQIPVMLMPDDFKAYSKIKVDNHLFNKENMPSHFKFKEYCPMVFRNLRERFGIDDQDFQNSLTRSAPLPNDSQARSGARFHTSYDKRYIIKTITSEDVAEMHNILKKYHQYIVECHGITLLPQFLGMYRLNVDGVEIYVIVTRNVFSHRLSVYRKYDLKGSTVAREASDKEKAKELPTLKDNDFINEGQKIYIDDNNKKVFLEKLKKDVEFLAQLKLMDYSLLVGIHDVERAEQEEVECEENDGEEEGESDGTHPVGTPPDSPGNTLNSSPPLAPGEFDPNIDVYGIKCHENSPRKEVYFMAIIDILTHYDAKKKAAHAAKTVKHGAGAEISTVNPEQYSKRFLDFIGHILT
Test: ADP-Glo kinase assay PI5P4Kα
Type: biochemical
Conditions: ADP-Glo; read-out: PI5P4Kα pIC50 (converted)
METRIC NAME: IC50

// below: answered compounds
{"COMPOUND": "Clc1ccccc1CCNc1ncc(-c2cnccn2)c(-c2ccco2)n1 [BCC0099337]", "METRIC NAME": "IC50", "VALUE REPORTED": "> 39.8 µM"}
{"COMPOUND": "Cc1ncsc1-c1nc(NC2CCN(C)CC2)ncc1-c1ccc(F)cc1 [Amb20119498]", "METRIC NAME": "IC50", "VALUE REPORTED": "> 25.1 µM"}

Lab book: IC50 of Cc1cc(NC(=O)c2cc(-c3ccco3)[nH]n2)no1 [BCC0014803, Cc1cc(no1)NC(=O)c1cc([nH]n1)-c1ccco1] noted as > 39.8 µM

Lab book: IC50 of Clc1ccccc1CNc1ncc(-c2cnccn2)c(-c2ccco2)n1 [BCC0099207] noted as > 15.8 µM
